Target: UniProt:Q9Y5Y6
Sequence (Q9Y5Y6 whole entry): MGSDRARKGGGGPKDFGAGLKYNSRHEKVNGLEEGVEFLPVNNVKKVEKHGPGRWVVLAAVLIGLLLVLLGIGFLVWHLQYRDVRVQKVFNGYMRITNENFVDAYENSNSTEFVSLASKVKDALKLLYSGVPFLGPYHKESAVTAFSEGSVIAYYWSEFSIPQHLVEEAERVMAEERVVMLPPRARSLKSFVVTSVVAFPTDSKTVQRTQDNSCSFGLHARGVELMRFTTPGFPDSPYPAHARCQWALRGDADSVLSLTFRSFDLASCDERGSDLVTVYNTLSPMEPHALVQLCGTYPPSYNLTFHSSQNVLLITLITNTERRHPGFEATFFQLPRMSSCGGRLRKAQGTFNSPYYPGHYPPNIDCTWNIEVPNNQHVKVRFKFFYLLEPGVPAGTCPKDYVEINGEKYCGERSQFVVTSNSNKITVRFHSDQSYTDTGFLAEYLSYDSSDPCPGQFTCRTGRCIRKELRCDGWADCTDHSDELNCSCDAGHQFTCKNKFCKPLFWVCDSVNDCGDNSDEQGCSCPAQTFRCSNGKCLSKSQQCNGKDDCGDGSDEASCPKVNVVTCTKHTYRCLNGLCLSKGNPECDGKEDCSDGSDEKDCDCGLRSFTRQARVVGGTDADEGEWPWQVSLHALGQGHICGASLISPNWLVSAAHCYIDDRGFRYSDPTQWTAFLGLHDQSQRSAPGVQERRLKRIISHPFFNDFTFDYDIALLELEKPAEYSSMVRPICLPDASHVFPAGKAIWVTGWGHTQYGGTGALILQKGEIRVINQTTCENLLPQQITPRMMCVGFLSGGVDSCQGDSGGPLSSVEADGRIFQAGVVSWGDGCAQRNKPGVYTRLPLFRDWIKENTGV
Assay: Inhibition of human recombinant matriptase catalytic domain expressed in HEK293 cells after 20 mins
Assay type: cell-based
pKi: −log10 of the molar value.
metric-name: pKi

| structure-smiles-string | observed-value |
| --- | --- |
| N=C(N)c1ccc(CNC(=O)[C@@H]2CCCN2C(=O)[C@@H](CC2CCCCC2)NS(=O)(=O)Cc2ccccc2)cc1 | 6.11 |

I. NCc1ccc(Cl)cc1CNC(=O)[C@@H]1CCCN1C(=O)[C@@H](CC1CCCCC1)NS(=O)(=O)Cc1ccccc1
II. N=C(N)NCCC[C@@H](NS(=O)(=O)Cc1ccccc1)C(=O)N1CCC[C@H]1C(=O)NCc1cc(Cl)ccc1CN
III. N=C(N)NCCC[C@@H](NS(=O)(=O)Cc1ccccc1)C(=O)N1CCC[C@H]1C(=O)NCc1ccc(C(=N)N)cc1
Query block: Arrange by pKi, high to low. I would appreciate it if you listed the labels in the requested order.
Result block: III, II, I
